Compound Myofibroblast Cytotoxicity Activity, hDMFa myofibroblast cells, per-entry values.

CC1=CC[C@H]2C[C@@H]1C2(C)C [Cmpd 21, (1S)-(-)-α-Pinene]	++
CC[C@H]1CN2CC[C@H]1C[C@@H]2[C@@H](O)c1ccnc2ccc(OC)cc12 [Cmpd 508, Hydroquinidine]	++
Cc1ccc(O)cc1	++
COc1cc2ncnc(Nc3ccc(F)c(Cl)c3)c2cc1NC(=O)/C=C/CN1CCCCC1	+++
CCOc1ccc(Cc2cc([C@@H]3O[C@H](CO)[C@@H](O)[C@H](O)[C@H]3O)ccc2Cl)cc1.C[C@H](O)CO.O	++

Data request: Fill in: Compound Myofibroblast Cytotoxicity Activity of CC(C)N(CCC(C(N)=O)(c1ccccc1)c1ccccn1)C(C)C (stereo not drawn) [Cmpd 366, Disopyramide] is ___
Data returned: ++

Data request: Fill in: Compound Myofibroblast Cytotoxicity Activity of "O=C(O)c1ccc(O)cc1" is ___
Data returned: ++++

Data request: Fill in: Compound Myofibroblast Cytotoxicity Activity of "C[C@]1(O)C[C@@H](c2nc(-c3ccc4ccc(-c5ccccc5)nc4c3)c3c(N)nccn32)C1" is ___
Data returned: +++

* * *

Compound Myofibroblast Cytotoxicity Activity, hDMFa myofibroblast cells, per-entry values.
Counter-ions that a name gives are not always drawn.

Before answering, review these 4 worked examples.
CC(C)(C)NCC(O)c1ccc(O)c(CO)c1 (centres unmarked) [Cmpd 847, Salbutamol]	++
NC(CO)C(=O)NNCc1ccc(O)c(O)c1O (centres unmarked) [Cmpd 162, Benserazide HCl]	++
CNCCCC12CCC(c3ccccc31)c1ccccc12 [Cmpd 635, Maprotiline HCl]	+++
O=C1CN(/N=C/c2ccc([N+](=O)[O-])o2)C(=O)N1 [Cmpd 720, Nitrofurantoin]	++++

// moving on: another record for Compound Myofibroblast Cytotoxicity Activity
Data request: Given the entry NCCCS(=O)(=O)O [Cmpd 961, Tramiprosate] , what Compound Myofibroblast Cytotoxicity Activity was observed with hDMFa myofibroblast cells?
Data returned: +++++

* * *

System: hDMFa myofibroblast cells
Counter-ions that a name gives are not always drawn.
Outcome Measure: Compound Myofibroblast Cytotoxicity Activity

NCCC(O)(P(=O)([O-])O)P(=O)([O-])O.[Na+].[Na+] [Cmpd 756, Pamidronate Disodium]	+++
COCCCC/C(=N\OCCN)c1ccc(C(F)(F)F)cc1 [Cmpd 466, Fluvoxamine maleate]	++
COCCCN1CCC(NC(=O)c2cc(Cl)c(N)c3c2OCC3)CC1 [Cmpd 806, Prucalopride]	+++
O=C(Nc1ccc([N+](=O)[O-])cc1Cl)c1cc(Cl)ccc1O [Cmpd 708, Niclosamide]	++

* * *

Test system: hDMFa myofibroblast cells
Structures can show the parent of a compound that is named as a salt.
Outcome Measure: Compound Myofibroblast Cytotoxicity Activity

Before answering, review these 10 worked examples.
C[n+]1cc2c3c(ccc2c2ccc4cc5c(cc4c21)OCO5)OCO3 [Cmpd 851, Sanguinarine chloride]	++++
CC=Cc1ccc(O)c(OC)c1	++
CC(CCc1ccccc1)NCC(O)c1ccc(O)c(C(N)=O)c1 (stereo not shown) [Cmpd 553, Labetalol HCl]	++
CS(=O)(=O)CCNCc1ccc(-c2ccc3ncnc(Nc4ccc(OCc5cccc(F)c5)c(Cl)c4)c3c2)o1 [Cmpd 558, Lapatinib Ditosylate]	+++
CC(C)(C)C(=O)OCOP(=O)(COCCn1cnc2c(N)ncnc21)OCOC(=O)C(C)(C)C	++++
Cn1c(=O)cc(N2CCC[C@@H](N)C2)n(Cc2ccccc2C#N)c1=O [Cmpd 100, Alogliptin Benzoate]	+++
CNC(=O)c1c(C)oc2cc(Oc3ncnc4cc(OC)c(OC)cc34)ccc12	++++
C[n+]1ccccc1/C=N/O [Cmpd 792, Pralidoxime Iodide]	++
CC(=O)NS(=O)(=O)c1ccc(N)cc1 [Cmpd 894, Sulfacetamide sodium salt hydrate]	++
CC(O)C(=O)O.CC(O)C(=O)O.CN1CCN(c2ccc3nc(-c4c(N)c5c(F)cccc5[nH]c4=O)[nH]c3c2)CC1	+++

Data request: Given the entry COc1ccccc1OCCNCC(O)COc1cccc2[nH]c3ccccc3c12 (stereo not shown) , what Compound Myofibroblast Cytotoxicity Activity was observed with hDMFa myofibroblast cells?
Data returned: +++
